B1: TPR 5TU (parent)
chain: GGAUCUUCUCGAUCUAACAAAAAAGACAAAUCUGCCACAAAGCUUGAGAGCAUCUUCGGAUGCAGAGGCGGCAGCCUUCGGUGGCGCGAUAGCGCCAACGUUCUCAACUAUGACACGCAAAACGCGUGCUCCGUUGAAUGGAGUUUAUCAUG

variants of: B1; test: polymerase ribozyme fitness, log enrichment relative to wild type (log ratio); higher = more active; in vitro selection for triplet polymerase activity
Fewer inactive variants are shown than the library holds.
Outcome: 1 for polymerase ribozyme fitness (log ratio) of at least -3; 0 for anything lower.

| Mutation key | Assigned label |
| --- | --- |
| G86C | 1 |
| C10G A16U A49C C51G A52U U56A C103G U146A | 0 |
| G84U A91G U144G | 1 |
| G83U G88U A150U | 0 |
| A29U G70U G71A C87U U90A A106U | 0 |
| A106C G141A | 1 |
| C57G G83C C85U A119G | 1 |
| G11C A12U C14A A28G A52C G62C U78A G112C | 0 |
| A40U C54U G71U C95A U146C G152A | 0 |
| C27A C43A A52U U55A U56A G92U | 0 |
| C51A G86A C118A | 0 |
| C69G C72U | 1 |
| C72U U90C C93A U104A U127A | 0 |
| G59C A89U G92C A121G | 1 |
| C54U G84A C105A | 1 |
| U33G C35G A60G A107G | 0 |
| A142C U144A U148G | 0 |
| U4A C8A U56A A122G G141A | 0 |
| A23G A40G G42C | 0 |
